- Test system: Escherichia coli IAI1
- Assay Remarks: fold change of Putrescine concentration vs plate DMSO controls (fold change (ratio)); higher = more amine produced, active = hit call of the paper (significant change in both replicates, either direction)
- Measurement Setup: incubation time: 27 h, anaerobic, 37 °C
Counter-ions that a name gives are not always drawn.
Property Name: fold change of Putrescine concentration

1. CC(C)(Oc1ccc(CCNC(=O)c2ccc(Cl)cc2)cc1)C(=O)O [Bezafibrate] (20 µM)	0.997 (inactive)
2. O=C(Oc1ccccc1)c1ccccc1O [Phenyl salicylate] (20 µM)	1.03 (inactive)
3. c1ccc(C2CN3CCSC3=N2)cc1 (stereo unspecified) [Tetramisole hydrochloride] (20 µM)	1.33 (inactive)
4. COc1cccc2c1C(=O)c1c(O)c3c(c(O)c1C2=O)C[C@@](O)(C(=O)CO)C[C@@H]3O[C@H]1C[C@H](N)[C@H](O)[C@H](C)O1 [Doxorubicin hydrochloride] (20 µM)	0.958 (inactive)
5. Nc1nc(CC(=O)Nc2ccc(CCNC[C@H](O)c3ccccc3)cc2)cs1 [Mirabegron] (20 µM)	0.977 (inactive)
6. OC[C@H]1O[C@H](O[C@H]2[C@H](O)[C@@H](O)[C@H](O)O[C@@H]2CO)[C@H](O)[C@@H](O)[C@@H]1O [Maltose] (50 µM)	1.02 (inactive)
7. Cc1ncc([N+](=O)[O-])n1CC(C)O (stereo unspecified) [Secnidazole] (20 µM)	0.978 (inactive)
8. NC(=O)c1ncn([C@@H]2O[C@H](CO)[C@@H](O)[C@H]2O)n1 [Ribavirin] (20 µM)	0.781 (inactive)
9. COc1ccc2[nH]cc(CCNC(C)=O)c2c1 [Melatonin] (20 µM)	0.98 (inactive)
10. Fc1ccc([C@@H]2CCNC[C@H]2COc2ccc3c(c2)OCO3)cc1 [Paroxetine hydrochloride] (20 µM)	0.692 (inactive)
11. CO/N=C(\C(=O)N[C@@H]1C(=O)N2C(C(=O)OC(C)OC(C)=O)=C(COC(N)=O)CS[C@H]12)c1ccco1 (stereo partly specified) [Cefuroxime axetil] (20 µM)	0.933 (inactive)
12. CCOCCn1c(N2CCCN(C)CC2)nc2ccccc21 [Emedastine difumarate] (20 µM)	0.991 (inactive)
13. c1ccc(CN(CC2=NCCN2)c2ccccc2)cc1 [Antazoline hydrochloride] (20 µM)	0.929 (inactive)
14. N[C@@H](CCC(=O)N[C@@H](CS)C(=O)NCC(=O)O)C(=O)O [Glutathione] (20 µM)	1.04 (inactive)
15. Nc1ccc(S(=O)(=O)Nc2ncccn2)cc1 [Sulfadiazine] (20 µM)	0.976 (inactive)
16. CC(C(=O)O)c1ccc2c(c1)CC(=O)c1ccccc1S2 (stereo unspecified) [Zaltoprofen] (20 µM)	1.01 (inactive)
17. C[C@H](CS)C(=O)N1CCC[C@H]1C(=O)O [Captopril] (20 µM)	0.963 (inactive)
18. C#CCN(C)CCCOc1ccc(Cl)cc1Cl [Clorgyline hydrochloride] (20 µM)	0.968 (inactive)
19. CCCCCCCCNC(C)C(O)c1ccc(SC(C)C)cc1 (stereo unspecified) [Suloctidil] (20 µM)	1.03 (inactive)
20. CCCNCC(O)COc1ccccc1C(=O)CCc1ccccc1 (stereo unspecified) [Propafenone hydrochloride] (20 µM)	0.987 (inactive)
21. CCCCc1ccc2[nH]c(NC(=O)OC)nc2c1 [Parbendazole] (20 µM)	0.98 (inactive)
22. CCN(CC)CC(=O)Nc1c(C)cccc1C [Lidocaine hydrochloride] (20 µM)	0.95 (inactive)
23. O=c1[nH]c(=O)n([C@H]2C[C@H](O)[C@@H](CO)O2)cc1I [Idoxuridine] (20 µM)	1.18 (inactive)
24. Cc1ccc2c(Cl)cc(Cl)c(O)c2n1 [Chlorquinaldol] (20 µM)	1.17 (inactive)
25. O=c1oc2ccccc2c(O)c1Cc1c(O)c2ccccc2oc1=O [Dicumarol] (20 µM)	0.993 (inactive)
26. C[C@]12CCC(=O)C=C1CC[C@@H]1[C@@H]2[C@@H](O)C[C@@]2(C)[C@H]1CC[C@]2(O)C(=O)CO [Hydrocortisone] (20 µM)	1.04 (inactive)

---

fold change of Putrescine concentration for assorted compounds
- Test system: Klebsiella aerogenes DSM 30053
- Assay Remarks: fold change of Putrescine concentration vs plate DMSO controls (fold change (ratio)); higher = more amine produced, active = hit call of the paper (significant change in both replicates, either direction)
- Measurement Setup: incubation time: 27 h, anaerobic, 37 °C
Where a name gives a salt, the structure may show the parent alone.
Property Name: fold change of Putrescine concentration

1. COc1ccccc1N1CCN(CCCNc2cc(=O)n(C)c(=O)n2C)CC1 [Urapidil hydrochloride] (20 µM)	1.01 (inactive)
2. Cc1ccnc(NS(=O)(=O)c2ccc(N)cc2)n1 [Sulfamerazine] (20 µM)	0.999 (inactive)
3. CN(C)[C@@H]1C(=O)C(C(=O)NCNCCCC[C@H](N)C(=O)O)=C(O)[C@@]2(O)C(=O)C3=C(O)c4c(O)cccc4[C@@](C)(O)[C@H]3C[C@@H]12 [Lymecycline] (20 µM)	1.03 (inactive)
4. CCCCOCCOCCOCc1cc2c(cc1CCC)OCO2 (20 µM)	1 (inactive)
5. COC(=O)Nc1nc2cc(C(=O)c3ccc(F)cc3)ccc2[nH]1 [Flubendazol] (20 µM)	1.02 (inactive)
6. CNC1(C)C2CCC(C2)C1(C)C (stereo not drawn) [Mecamylamine hydrochloride] (20 µM)	0.994 (inactive)
7. CC(C)(c1ccc(O)cc1)c1ccc(O)cc1 [Bisphenol A] (20 µM)	0.988 (inactive)
8. CN(C)CCCC1(c2ccc(F)cc2)OCc2cc(C#N)ccc21 (stereo not drawn) [Citalopram hydrobromide] (20 µM)	1 (inactive)
9. CC(=O)NS(=O)(=O)c1ccc(NC(=O)c2ccccc2C(=O)O)cc1 [Phthalylsulfacetamide] (20 µM)	1.01 (inactive)
10. NCCNCCNCCNCCN [Tetraethylenepentamine pentahydrochloride] (20 µM)	0.994 (inactive)
11. CC(C)(C)NCC(O)COc1cccc2c1CCC(=O)N2 (stereo not drawn) [Carteolol hydrochloride] (20 µM)	0.982 (inactive)
12. CC(C[N+](C)(C)C)OC(N)=O (stereo not drawn) [Bethanechol chloride] (20 µM)	1.01 (inactive)
13. CCN(CC)CCOC(=O)c1ccc(N)cc1 [Procaine hydrochloride] (20 µM)	1.03 (inactive)
14. OCCN1CCN(CCCN2c3ccccc3C=Cc3ccccc32)CC1 [Opipramol dihydrochloride] (20 µM)	0.994 (inactive)
15. CC(C)c1nc(CN(C)C(=O)N[C@H](C(=O)N[C@@H](Cc2ccccc2)C[C@H](O)[C@H](Cc2ccccc2)NC(=O)OCc2cncs2)C(C)C)cs1 [Ritonavir] (20 µM)	1.01 (inactive)
16. CCn1cc(C(=O)O)c(=O)c2cc(F)c(N3CCNCC3)nc21 [Enoxacin] (20 µM)	1.19 (inactive)
17. CCn1cc(C(=O)O)c(=O)c2cc(F)c(N3CCNC(C)C3)c(F)c21 (stereo not drawn) [Lomefloxacin hydrochloride] (20 µM)	0.627 (active)
18. CCOc1cc(N)c(Cl)cc1C(=O)NCC1CN(Cc2ccc(F)cc2)CCO1 (stereo not drawn) [Mosapride] (20 µM)	1.02 (inactive)

---

- Test system: Klebsiella aerogenes DSM 30053
- Assay Remarks: fold change of Cadaverine concentration vs plate DMSO controls (fold change (ratio)); higher = more amine produced, active = hit call of the paper (significant change in both replicates, either direction)
- Measurement Setup: incubation time: 27 h, anaerobic, 37 °C
Counter-ions that a name gives are not always drawn.
fold change of Cadaverine concentration for assorted molecules
Property Name: fold change of Cadaverine concentration

1. Cc1ccnc2c1NC(=O)c1cccnc1N2C1CC1 [Nevirapine] (20 µM)	1.01
2. Cc1cn([C@H]2C=C[C@@H](CO)O2)c(=O)[nH]c1=O [Stavudine] (20 µM)	0.991
3. CCC(=O)c1c(O)cc(O)cc1O [Flopropione] (20 µM)	1
4. CC(N)C12CC3CC(CC(C3)C1)C2 (centres undefined) [Rimantadine hydrochloride] (20 µM)	0.994
5. CC(C(=O)O)c1ccc(CC2CCCC2=O)cc1 (centres undefined) [Loxoprofen] (20 µM)	1.01
6. O=C(O)COCCN1CCN(C(c2ccccc2)c2ccc(Cl)cc2)CC1 (centres undefined) [Cetirizine dihydrochloride] (20 µM)	1
7. CCOc1ccccc1OC(c1ccccc1)C1CNCCO1 (centres undefined) [Reboxetine mesylate] (20 µM)	1
8. CC(C)(C)NC(=O)[C@@H]1CN(Cc2cccnc2)CCN1C[C@@H](O)C[C@@H](Cc1ccccc1)C(=O)N[C@H]1c2ccccc2C[C@H]1O [Indinavir sulfate] (20 µM)	1
9. CC(C)NC(=N)NC(=N)Nc1ccc(Cl)cc1 [Proguanil hydrochloride] (20 µM)	0.979

---

- System: Escherichia coli IAI1
- Assay Remarks: growth (OD595) fold change vs plate DMSO controls (fold change (ratio)); higher = more growth
- Measurement Setup: incubation time: 27 h, anaerobic, 37 °C
Property Name: growth

1) CCCCCCCC/C=C\CCCCCCCCCCCC(=O)O [Erucic acid] (20 µM)	1
2) CC=C(C)C(=O)OC1C(OC(C)=O)C2(CO)C(O)CC3(C)C(=CCC4C5(C)CCC(OC6OC(C(=O)O)C(OC7OC(CO)C(O)C(O)C7O)C(O)C6OC6OC(CO)C(O)C(O)C6O)C(C)(CO)C5CCC43C)C2CC1(C)C (stereo not drawn) [Beta-Escin] (20 µM)	1
3) Cc1c(C(=O)NN2CCCCC2)nn(-c2ccc(Cl)cc2Cl)c1-c1ccc(Cl)cc1 [Rimonabant] (20 µM)	0.979
4) O=C(O)Cc1ccc(-c2ccccc2)cc1 [Felbinac] (20 µM)	1.01
5) CC(C)(C)CC(C)(C)c1ccc(O)c(Cc2ccc(Cl)cc2Cl)c1 [Clofoctol] (20 µM)	0.973
